Value source: a melting point compilation (Tetko et al.)

Kindly state melting point for each of the entries shown.

O=C(O)C1CCCN1C(=O)c1ccc(Cl)s1 (stereo not drawn) ... 127 to 129 °C
CCOC(=O)c1ccc(S)nc1 ... 135 to 137 °C
Nc1cc(C(F)(F)F)ccc1O ... 115 to 117 °C
N#Cc1ccc(-c2cccs2)[nH]c1=O ... 301 to 303 °C
CC1Oc2ccc(Cl)cc2NC1=O (stereo not drawn) ... 171 to 173 °C
CC(C)C(C#N)NC(=O)OC(C)(C)C (stereo not drawn) ... 73 to 75 °C
O=C(O)CCS(=O)(=O)c1ccc(Cl)cc1 ... 181 to 183 °C
Nc1ccc(S)c(Cl)c1 ... 78 to 80 °C
Cc1[nH]c(C(=O)O)c(C)c1C(=O)OC(C)C ... 183 to 185 °C
CCNC(=O)c1ccc(I)cc1 ... 148 to 150 °C

Could you report melting point for every entry in the following list?
1. N=c1ccc2sc(N)nc2[nH]1
2. O=C(O)c1ccccc1NCCO
3. NC(=S)N1CCc2sccc2C1
4. CSC(C(=O)O)c1ccccc1 (stereo not drawn)
5. Cc1cc(S(N)(=O)=O)sc1Br

Ans.
1. 193 to 195 °C
2. 142 to 144 °C
3. 109 to 111 °C
4. 75 to 77 °C
5. 149 to 151 °C
